# System: HepG2 cells
# testConditions: human, 24 hr
propertyMeasured: Toxicity (µM)

* C[C@@]12C=CC[C@H]1[C@@H]1CC=C3C[C@@H](O)CC[C@]3(C)[C@H]1CC2 | 100
* CC1=C(/C=C/C(C)=C/C=C/C(C)=C/CO)C(C)(C)CCC1 | 50
* CC1=C(C/C=C(\C)CCC[C@H](C)CCC[C@H](C)CCCC(C)C)C(=O)c2ccccc2C1=O | 100
* C[C@]12CC[C@H](O)C[C@@H]1CC[C@@H]1[C@@H]2CC[C@]2(C)C=CC[C@@H]12 | 50

###

# testSystem: human PXR (Homo sapiens)
# Sequence (O75469 whole entry): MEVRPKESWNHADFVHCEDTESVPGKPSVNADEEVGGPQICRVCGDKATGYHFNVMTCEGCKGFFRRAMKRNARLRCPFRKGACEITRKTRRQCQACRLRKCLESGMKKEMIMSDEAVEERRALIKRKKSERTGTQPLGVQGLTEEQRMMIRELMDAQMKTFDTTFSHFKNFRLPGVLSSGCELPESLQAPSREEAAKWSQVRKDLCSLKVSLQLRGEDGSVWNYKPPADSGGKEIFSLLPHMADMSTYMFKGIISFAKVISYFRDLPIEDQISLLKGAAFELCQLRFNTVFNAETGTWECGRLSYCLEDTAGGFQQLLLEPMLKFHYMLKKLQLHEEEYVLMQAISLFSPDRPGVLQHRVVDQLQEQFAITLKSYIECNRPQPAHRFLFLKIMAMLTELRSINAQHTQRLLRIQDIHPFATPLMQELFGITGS
# assayProtocol: PXR activation luciferase reporter assay, human PXR in HepG2-NTCP cells
pEC50: −log10 of the molar value.
# key: entry, value: pEC50
propertyMeasured: pEC50

* Clc1cc2c(cc1Cl)Oc1cc(Cl)c(Cl)cc1O2 | 7.17
* C[C@]12CC[C@@H]3c4ccc(O)cc4CC[C@H]3[C@@H]1[C@@H](O)[C@@H](O)[C@@H]2O | 5.67
* C[C@]12CC[C@@H](O)C[C@@H]1CC[C@@H]1[C@@H]2CC[C@]2(C)C=CC[C@@H]12 | 5.26
* C[C@]12CC[C@H](O)C[C@@H]1CC[C@@H]1[C@@H]2CC[C@]2(C)C=CC[C@@H]12 | 5.32

###

# testSystem: chicken PXR (Gallus gallus)
# Sequence (Q9DFH3 1-391): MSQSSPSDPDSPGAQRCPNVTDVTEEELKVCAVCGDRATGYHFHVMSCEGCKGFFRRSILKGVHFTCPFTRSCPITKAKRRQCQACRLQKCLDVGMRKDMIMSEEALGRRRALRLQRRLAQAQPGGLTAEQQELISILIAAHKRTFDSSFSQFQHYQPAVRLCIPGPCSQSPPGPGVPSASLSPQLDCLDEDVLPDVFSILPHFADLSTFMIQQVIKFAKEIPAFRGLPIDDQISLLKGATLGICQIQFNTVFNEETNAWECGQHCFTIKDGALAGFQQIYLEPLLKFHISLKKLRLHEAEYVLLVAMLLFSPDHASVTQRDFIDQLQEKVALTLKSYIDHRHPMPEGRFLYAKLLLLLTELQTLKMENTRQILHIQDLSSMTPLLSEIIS
# testConditions: -log(EC50), EC50 in molar units
propertyMeasured: Chicken PXR Activity

* C[C@H](CCC(=O)O)[C@H]1CC[C@H]2[C@@H]3C[C@@H](O)[C@@H]4C[C@H](O)CC[C@]4(C)[C@H]3CC[C@]12C | No effect
* CC(CCC[C@@H](C)[C@H]1CC[C@H]2[C@@H]3[C@H](O)C[C@@H]4C[C@H](O)CC[C@]4(C)[C@H]3C[C@H](O)[C@]12C)C(=O)NCCS(=O)(=O)O (some centres unmarked) | No effect
* c1ccc2c(c1)cc1ccc3cccc4ccc2c1c34 [MI3, Benzo [a]pyren] | 4.40
* C[C@H](CCC(=O)NCCS(=O)(=O)O)[C@H]1CC[C@H]2[C@@H]3[C@@H](O)[C@@H](O)[C@@H]4C[C@H](O)CC[C@]4(C)[C@H]3CC[C@]12C | No effect
* C[C@H](CCC(=O)O)[C@H]1CC[C@H]2[C@@H]3[C@H](O)C[C@H]4C[C@H](O)CC[C@]4(C)[C@H]3C[C@H](O)[C@]12C | No effect
* CC(C)CCC[C@@H](C)[C@H]1CC[C@H]2[C@@H]3[C@H](O)C=C4C[C@@H](O)CC[C@]4(C)[C@H]3CC[C@]12C [BI047, 7α-Hydroxycholesterol] | No effect
* C[C@H](CCC(=O)NCCS(=O)(=O)O)[C@H]1CC[C@H]2[C@@H]3[C@H](O)C[C@@H]4C[C@H](O)CC[C@]4(C)[C@H]3CC[C@]12C | No effect
* C[C@H](CCC(O)C(CO)COS(=O)(=O)O)[C@H]1CC[C@H]2[C@@H]3[C@H](O)C[C@@H]4C[C@H](O)CC[C@]4(C)[C@H]3C[C@H](O)[C@]12C (some centres unmarked) | 4.37

###

# testSystem: zebrafish PXR (Danio rerio)
# Sequence (A5WYG8 144-430): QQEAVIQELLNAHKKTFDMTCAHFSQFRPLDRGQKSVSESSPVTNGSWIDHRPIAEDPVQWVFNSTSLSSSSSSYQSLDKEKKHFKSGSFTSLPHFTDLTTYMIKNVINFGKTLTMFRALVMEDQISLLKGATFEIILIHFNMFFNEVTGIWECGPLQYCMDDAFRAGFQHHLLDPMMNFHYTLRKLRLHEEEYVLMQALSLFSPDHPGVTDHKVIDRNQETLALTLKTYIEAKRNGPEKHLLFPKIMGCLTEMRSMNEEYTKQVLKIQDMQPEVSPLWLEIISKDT
# testConditions: -log(EC50), EC50 in molar units, activation of zebrafish PXR
propertyMeasured: zfPXR Activity

• C[C@]12CCC(=O)C=C1CC[C@@H]1[C@@H]2CC[C@@]2(C)[C@H]1CC[C@]2(O)C(=O)CO = None
• CC1=C(/C=C/C(C)=C/C=C/C(C)=C/C=C/C=C(C)/C=C/C=C(C)/C=C/C2=C(C)CCCC2(C)C)C(C)(C)CCC1 = None
• C[C@]12CC[C@@H]3c4ccc(O)cc4CC[C@H]3[C@@H]1C[C@@H](O)C2=O = 5.70
• C[C@H](CCC(=O)NCCS(=O)(=O)O)[C@H]1CC[C@H]2[C@@H]3[C@@H](O)[C@@H](O)[C@@H]4C[C@H](O)CC[C@]4(C)[C@H]3CC[C@]12C = None
• CC(=O)[C@H]1CC[C@H]2[C@@H]3CC=C4C[C@@H](OS(=O)(=O)O)CC[C@]4(C)[C@H]3CC[C@]12C [PR26, 5-Pregnen-20-one-3β-sulfate] = 4.95
• C[C@H](CCC(=O)O)[C@H]1CC[C@H]2[C@@H]3CC[C@@H]4C[C@H](OS(=O)(=O)O)CC[C@]4(C)[C@H]3CC[C@]12C [BI41, 5β-Cholanic acid-3α-sulfate] = 4.61
• C[C@]12CC[C@@H]3c4ccc(OS(=O)(=O)O)cc4CC[C@H]3[C@@H]1CC[C@@H]2O [ES10, 1,3,5(10)-Estratrien-17β-ol-3-sulfate] = None
• Cc1cc(O)cc2c1O[C@](C)(CCC[C@H](C)CCC[C@H](C)CCCC(C)C)CC2 = None
• C=C1/C(=C\C=C2/CCC[C@]3(C)[C@@H]([C@H](C)CCCC(C)C)CC[C@@H]23)C[C@@H](O)C[C@@H]1O [MI43, 1α-Hydroxyvitamin D3] = None
• C[C@H](CCC(=O)O)[C@H]1CC[C@H]2[C@@H]3[C@H](O)C[C@H]4C[C@H](O)CC[C@]4(C)[C@H]3C[C@H](O)[C@]12C = None
• C[C@]12CC[C@@H](O)C[C@H]1CC[C@@H]1[C@@H]2C(=O)C[C@]2(C)C(=O)CC[C@@H]12 = 5.01
• CC[C@H](C)C(=O)O[C@H]1CCC=C2C=C[C@H](C)[C@H](CC[C@@H]3C[C@@H](O)CC(=O)O3)[C@H]21 = None
• C[C@H](CCCOS(=O)(=O)O)[C@H]1CC[C@H]2[C@@H]3[C@H](O)C[C@H]4C[C@H](O)CC[C@]4(C)[C@H]3C[C@H](O)[C@]12C [BI30, 5α-Cholan-3α,7α,12α-triol-24-sulfate] = None
• CCOP(=O)(OCC)C(=Cc1cc(C(C)(C)C)c(O)c(C(C)(C)C)c1)P(=O)(OCC)OCC = None
• C#C[C@]1(O)CC[C@H]2[C@@H]3CCc4cc(O)ccc4[C@H]3CC[C@@]21C = None
• C=C1/C(=C\C=C2/CCC[C@]3(C)[C@@H]([C@H](C)/C=C/[C@H](C)C(C)C)CC[C@@H]23)C[C@@H](O)C[C@@H]1O [MI42, 1α-Hydroxyvitamin D2] = None
• C[C@]12CC[C@@H]3c4ccc(O)cc4CC[C@H]3[C@@H]1CC[C@@H]2O = None
• CC(=O)[C@H]1CC[C@H]2[C@@H]3CC=C4C[C@@H](O)CC[C@]4(C)[C@H]3CC[C@]12C = 6.32
• COc1c(C)c2c(c(O)c1C/C=C(\C)CCC(=O)O)C(=O)OC2 = None
• c1ccc2c(c1)cc1ccc3cccc4ccc2c1c34 [MI3, Benzo [a]pyren] = 4.00
• CC(CO)CCC[C@@H](C)[C@H]1[C@H](O)C[C@H]2[C@@H]3[C@H](O)C[C@H]4C[C@@H](O)CC[C@]4(C)[C@H]3CC[C@]12C (stereo partly drawn) = None
• C[C@]12CCC(=O)C=C1CC[C@@H]1[C@@H]2[C@@H](O)C[C@]2(C=O)[C@@H](C(=O)CO)CC[C@@H]12 = None
• Cc1cc(O)c(C)c2c1O[C@](C)(CCC[C@H](C)CCC[C@H](C)CCCC(C)C)CC2 = None
• CC(C)CCC[C@@H](C)[C@H]1CC[C@H]2C3=CC=C4C[C@@H](O)CC[C@]4(C)[C@H]3CC[C@]12C = None

###

# Test system: HepG2 cells
# assayProtocol: Toxicity assays in HepG2 cells (MTT and alamar blue reduction)
# testConditions: lowest concentration that produced significant toxicity in the HepG2 cells
propertyMeasured: Toxicity

- C[C@H](CCC(=O)O)[C@H]1CC[C@H]2[C@@H]3C(=O)C[C@@H]4C[C@H](O)CC[C@]4(C)[C@H]3C[C@H](O)[C@]12C: None
- C[C@H](CCC(=O)O)[C@H]1CC[C@H]2[C@@H]3[C@H](O)C[C@H]4CC(=O)CC[C@]4(C)[C@H]3C[C@H](O)[C@]12C: None
- C[C@H](CCC(=O)O)[C@H]1CC[C@H]2[C@@H]3CC[C@@H]4CC(=O)CC[C@]4(C)[C@H]3CC[C@]12C: None
- C[C@]12CC[C@@H](O)C[C@H]1CC[C@@H]1[C@@H]2C(=O)C[C@]2(C)C(=O)CC[C@@H]12: None
- Clc1cc2c(cc1Cl)Oc1cc(Cl)c(Cl)cc1O2: 10 µM
- C[C@H](CCCOS(=O)(=O)O)[C@H]1CC[C@H]2[C@@H]3[C@H](O)C[C@H]4C[C@H](O)CC[C@]4(C)[C@H]3C[C@H](O)[C@]12C [BI30, 5α-Cholan-3α,7α,12α-triol-24-sulfate]: None
- C[C@]12CC[C@@H]3c4ccc(O)cc4CC[C@H]3[C@@H]1[C@@H](O)[C@@H](O)[C@@H]2O: 200 µM
- CC(CCC[C@@H](C)[C@H]1[C@H](O)C[C@H]2[C@@H]3[C@H](O)C[C@H]4C[C@@H](OS(=O)(=O)O)CC[C@]4(C)[C@H]3CC[C@]12C)COS(=O)(=O)O (stereo partly drawn) [BI39, 5α-Cholestan-7α,16α-diol-3β,27-disulfate]: 200 µM
- CCCCOC(=O)c1ccccc1 [MI5, Butylbenzoate]: None
- C[C@]12CCC(=O)C[C@@H]1CC[C@@H]1[C@@H]2CC[C@]2(C)[C@@H](O)CC[C@@H]12: None
- O=S(=O)(c1ccccc1)N(CC(F)(F)F)c1ccc(C(O)(C(F)(F)F)C(F)(F)F)cc1: 100 µM
- C[C@H](CCC(=O)O)[C@H]1CC[C@H]2[C@@H]3[C@H](O)C[C@H]4C[C@H](O)CC[C@]4(C)[C@H]3C[C@H](O)[C@]12C: 200 µM
